Tested on: A549-TP53BP1-CLTA
methodNotes: lowest phenotypically active concentration; higher = less potent
conditionNotes: treatment time: 24 h
Structures can show the parent of a compound that is named as a salt.
outcomeMeasure: lowest phenotypically active concentration

compound=COc1cc2c(cc1NS(=O)(=O)c1ccc(Br)cc1C)n(C)c(=O)n2C measuredtarget=A549-TP53BP1-CLTA val="9 µM"
compound=Nc1cc(C(F)(F)F)c(-c2cc(N3CCOCC3)nc(N3CCOCC3)n2)cn1 measuredtarget=A549-TP53BP1-CLTA val="1 µM"
compound=CO[C@@H]1[C@H](N(C)C(=O)c2ccccc2)C[C@H]2O[C@]1(C)n1c3ccccc3c3c4c(c5c6ccccc6n2c5c31)C(=O)NC4 measuredtarget=A549-TP53BP1-CLTA val="≤ 0.3 µM"
compound=N#C/C(=C(/N)Sc1ccc(N)cc1)c1ccccc1C(F)(F)F measuredtarget=A549-TP53BP1-CLTA val="1 µM"
compound=CCN1CCN(c2cc(-c3ccc(F)cc3)c3c(n2)CCCCCC3)CC1 measuredtarget=A549-TP53BP1-CLTA val="9 µM"
compound="COc1ccc(CCNCc2ccc(OCc3ccc(Cl)nc3)c(OC)c2)cc1OC [SBE 13 hydrochloride]" measuredtarget=A549-TP53BP1-CLTA val="9 µM"
compound="C[C@]12CCC(=O)C=C1CC[C@@H]1[C@@H]2[C@@H](O)C[C@@]2(C)[C@H]1CC[C@]2(O)C(=O)CO [hydrocortisone]" measuredtarget=A549-TP53BP1-CLTA val="≤ 0.3 µM"
compound=CN1CCN([C@H]2CC[C@H](n3cc(-c4ccc(Oc5ccccc5)cc4)c4c(N)ncnc43)CC2)CC1 measuredtarget=A549-TP53BP1-CLTA val="≤ 0.3 µM"
